# target.entity: GSK3β (Homo sapiens)
# Sequence (P49841 whole entry): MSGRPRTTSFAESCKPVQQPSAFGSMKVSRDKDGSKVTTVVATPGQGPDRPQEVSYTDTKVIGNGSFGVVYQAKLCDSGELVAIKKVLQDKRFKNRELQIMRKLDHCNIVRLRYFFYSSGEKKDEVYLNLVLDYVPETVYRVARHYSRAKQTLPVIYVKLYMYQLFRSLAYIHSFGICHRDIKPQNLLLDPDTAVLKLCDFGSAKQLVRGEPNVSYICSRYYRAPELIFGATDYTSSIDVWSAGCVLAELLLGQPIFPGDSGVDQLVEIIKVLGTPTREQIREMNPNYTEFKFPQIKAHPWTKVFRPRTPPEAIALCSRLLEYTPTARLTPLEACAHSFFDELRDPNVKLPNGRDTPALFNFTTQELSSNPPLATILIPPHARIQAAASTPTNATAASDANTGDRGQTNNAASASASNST
# assay.details: ADP-Glo kinase assay
# Assay type: biochemical
# run.parameters: 10 µM ATP
Entries and their IC50 values follow.
measured.quantity: IC50 (µM)

1) Cc1ccc(NC(=S)N/N=C2\C(=O)C3=C(OC(C)(C)CC3)c3ccccc32)cc1    4.91
2) CC1(C)CCC2=C(O1)c1ccccc1/C(=N/NC(=S)Nc1ccc([N+](=O)[O-])cc1)C2=O    1

---

# System: HCT-116 (human colon carcinoma)
# assay.details: MTT cytotoxicity assay, HCT-116
# Format: cell-based
# run.parameters: Homo sapiens; HCT-116, 72 h, MTT
measured.quantity: IC50 (µM)

1. CC1(C)CCC2=C(O1)c1ccccc1C(=O)C2=O    0.14
2. Cc1ccc(NC(=S)N/N=C2\C(=O)C3=C(OC(C)(C)CC3)c3ccccc32)cc1    36.9
3. CC1(C)CCC2=C(O1)c1ccccc1/C(=N/NC(=S)Nc1ccc([N+](=O)[O-])cc1)C2=O    20.6

---

# Tested on: HepG2 (human hepatocellular carcinoma)
# assay.details: MTT cytotoxicity assay, HepG2
# Assay type: cell-based
# run.parameters: Homo sapiens; HepG2, 72 h, MTT
pIC50: −log10 of the molar value.
Examples of compounds with documented pIC50 follow.
measured.quantity: pIC50

1. CC1(C)CCC2=C(O1)c1ccccc1/C(=N/NC(=S)Nc1ccc([N+](=O)[O-])cc1)C2=O [BV3]    4.90
2. Cc1ccc(NC(=S)N/N=C2\C(=O)C3=C(OC(C)(C)CC3)c3ccccc32)cc1 [BV5]    4.75
3. CC1(C)CCC2=C(O1)c1ccccc1C(=O)C2=O [β-lap, β-Lapachone]    6.92

---

# target.entity: JAK3 (Homo sapiens, UniProt P52333)
# Sequence (P52333 whole entry): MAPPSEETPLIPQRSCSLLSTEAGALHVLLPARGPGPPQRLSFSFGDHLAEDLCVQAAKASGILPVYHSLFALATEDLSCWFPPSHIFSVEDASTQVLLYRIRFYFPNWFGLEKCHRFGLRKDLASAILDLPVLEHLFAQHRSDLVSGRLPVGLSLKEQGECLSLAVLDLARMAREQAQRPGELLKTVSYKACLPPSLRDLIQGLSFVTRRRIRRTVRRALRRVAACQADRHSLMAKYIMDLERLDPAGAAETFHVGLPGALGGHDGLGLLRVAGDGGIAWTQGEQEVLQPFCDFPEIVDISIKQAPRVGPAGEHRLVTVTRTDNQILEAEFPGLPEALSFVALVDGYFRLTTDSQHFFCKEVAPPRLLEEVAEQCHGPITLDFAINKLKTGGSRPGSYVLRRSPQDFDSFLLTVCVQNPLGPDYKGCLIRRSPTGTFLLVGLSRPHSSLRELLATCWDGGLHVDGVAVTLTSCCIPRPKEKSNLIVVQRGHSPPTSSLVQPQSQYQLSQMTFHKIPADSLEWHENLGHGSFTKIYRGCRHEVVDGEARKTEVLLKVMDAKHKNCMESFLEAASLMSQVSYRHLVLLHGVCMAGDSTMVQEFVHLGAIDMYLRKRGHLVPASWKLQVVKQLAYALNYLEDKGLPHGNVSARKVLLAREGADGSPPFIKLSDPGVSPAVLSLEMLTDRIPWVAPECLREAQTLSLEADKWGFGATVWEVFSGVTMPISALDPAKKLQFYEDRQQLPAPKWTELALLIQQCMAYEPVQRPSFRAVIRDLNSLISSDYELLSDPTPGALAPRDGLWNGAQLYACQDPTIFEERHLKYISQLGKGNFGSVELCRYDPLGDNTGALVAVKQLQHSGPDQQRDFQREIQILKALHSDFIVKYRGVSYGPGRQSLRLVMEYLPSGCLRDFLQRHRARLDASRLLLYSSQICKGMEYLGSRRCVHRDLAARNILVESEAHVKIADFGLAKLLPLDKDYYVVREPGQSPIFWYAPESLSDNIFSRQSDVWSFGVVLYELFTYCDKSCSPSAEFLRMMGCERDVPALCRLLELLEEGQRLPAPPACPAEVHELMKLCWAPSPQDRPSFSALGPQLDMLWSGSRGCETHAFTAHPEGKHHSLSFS
# assay.details: ADP-Glo kinase assay
# Type: biochemical
# run.parameters: JAK3, 10 µM ATP
pIC50: −log10 of the molar value.
measured.quantity: pIC50

1) Cc1ccc(NC(=S)N/N=C2\C(=O)C3=C(OC(C)(C)CC3)c3ccccc32)cc1    6.28

---

IC50 values for the compounds below.
# target.entity: PIM1 (Homo sapiens)
# Sequence (P11309 whole entry): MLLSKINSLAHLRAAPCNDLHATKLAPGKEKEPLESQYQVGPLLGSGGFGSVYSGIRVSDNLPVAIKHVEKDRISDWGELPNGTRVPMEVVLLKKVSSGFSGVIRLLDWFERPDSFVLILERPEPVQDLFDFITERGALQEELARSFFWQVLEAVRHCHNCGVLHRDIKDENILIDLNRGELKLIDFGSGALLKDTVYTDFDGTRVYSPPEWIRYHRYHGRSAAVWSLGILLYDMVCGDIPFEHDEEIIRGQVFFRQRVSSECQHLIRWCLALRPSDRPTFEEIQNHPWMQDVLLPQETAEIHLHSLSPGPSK
# assay.details: ADP-Glo kinase assay
# Type: biochemical
# run.parameters: PIM1, 10 µM ATP
measured.quantity: IC50

1. Cc1ccc(NC(=S)N/N=C2\C(=O)C3=C(OC(C)(C)CC3)c3ccccc32)cc1 [BV5]    8.74 µM
2. CC1(C)CCC2=C(O1)c1ccccc1/C(=N/NC(=S)Nc1ccc([N+](=O)[O-])cc1)C2=O [BV3]    4.15 µM

---

# target.entity: JAK3 (Homo sapiens, UniProt P52333)
# assay.details: ADP-Glo kinase assay
# Type: biochemical
# run.parameters: JAK3, dose–response curve, Figure 5
measured.quantity: IC50 (nM)

1. CC1(C)CCC2=C(O1)c1ccccc1/C(=N/NC(=S)Nc1ccc([N+](=O)[O-])cc1)C2=O [BV3]    115
2. Cc1ccc(NC(=S)N/N=C2\C(=O)C3=C(OC(C)(C)CC3)c3ccccc32)cc1 [BV5]    522

---

The reader will find reported IC50 values listed item by item below.
# Tested on: L929 (murine fibroblasts)
# assay.details: MTT cytotoxicity assay, L929
# Assay type: cell-based
# run.parameters: Mus musculus, L929, 72 h
measured.quantity: IC50

1) CC1(C)CCC2=C(O1)c1ccccc1C(=O)C2=O    4.54 µM
2) Cc1ccc(NC(=S)N/N=C2\C(=O)C3=C(OC(C)(C)CC3)c3ccccc32)cc1    13.1 µM
3) CC1(C)CCC2=C(O1)c1ccccc1/C(=N/NC(=S)Nc1ccc([N+](=O)[O-])cc1)C2=O    44 µM

---

# target.entity: GSK3β (Homo sapiens)
# assay.details: ADP-Glo kinase assay
# Type: biochemical
# run.parameters: dose–response curve, Figure 5
# Experimental: Kinase enzymatic activities of CDK5/p25, CDK9/CyclinT, HASPIN, PIM1, GSK3β, CK1ε, ABL1, and JAK3 were assayed using the luminescent ADP detection assay described in Zegzouti et al. (ADP-GloTM assay kit provided by Promega, Madison, WI, USA). […] Kinase activities are expressed in % of maximal activity, i.e., measured in the absence of inhibitor but with a similar dose of DMSO (solvent of the tested compounds).
measured.quantity: IC50 (nM)

1. CC1(C)CCC2=C(O1)c1ccccc1/C(=N/NC(=S)Nc1ccc([N+](=O)[O-])cc1)C2=O    1000

These entries and their values trace back to paper PMC12196213.
